Tested on: UO-31 renal
Assay: NCI tumour cell line growth inhibition, 48 h
measured-endpoint: GI50

// solved cases for GI50 follow
* COC(=O)[C@]12CC[C@@H](C)[C@H](C)[C@@H]1C1=CC[C@@H]3[C@@]4(C)C(C=O)=C[C@@](C)(COC(=O)c5ccco5)[C@@H]4[C@H](O)C[C@@]3(C)[C@]1(C)CC2 | 1.66 µM
* COc1cc(OC)c2sc(-c3ccc(-n4cncc4-c4cc(OC)c(OC)c(OC)c4)cc3)nc2c1 | 2.27 µM
* COc1cc(/C=C2\CCC/C(=C\c3ccc(OCC4CO4)c(OC)c3)C2=O)ccc1OCC1CO1 (centres undefined) | 2.51 µM

Note: attention shifts to another entry.
Q) Identify GI50 associated with the compound NCCCOc1cc(Cl)ccc1NC(=O)c1cc2ccccc2cc1OCCCN
A) 1.2 µM
